# assayNotes: MTT assay (relative cell survival), H1299
# statedConditions: human, H1299 non-small cell lung cancer cells (PhTERT-SEAP), Relative MTT viability (%), 10 μM
measuredMetric: viability at 72 h, 10 µM (%)
Answers are plain numbers, in %.

Some molecules with recorded viability at 72 h, 10 µM:
smilescode=O=C1c2ccccc2C(=O)c2c1ccc1nc(CNCc3ccc4c(c3)OCO4)[nH]c21 unitofmeasure=% measured=103
smilescode=N#Cc1ccccc1N1CCN(Cc2nc3ccc4c(c3[nH]2)C(=O)c2ccccc2C4=O)CC1 unitofmeasure=% measured=61.7
smilescode=O=C1c2ccccc2C(=O)c2c1ccc1nc(CN3CCSC3)[nH]c21 unitofmeasure=% measured=75.5

Q: Entry O=C1c2ccccc2C(=O)c2c1ccc1nc(CCN3CCN(c4ccccn4)CC3)[nH]c21 has what viability at 72 h, 10 µM?
Result: 92.8
